Data provenance: patent US20230406921A1

target: CD47 on the surface of human red blood cells (human) (UniProt Q08722); assay: FACS, hRBC, 500 nM
Value type: FACS (MFI)
Numbers only, in MFI.

## Task Fill blank: measured FACS (MFI) of the binder h140Hm13/h140Lm15 (antibody, V domains shown) VH: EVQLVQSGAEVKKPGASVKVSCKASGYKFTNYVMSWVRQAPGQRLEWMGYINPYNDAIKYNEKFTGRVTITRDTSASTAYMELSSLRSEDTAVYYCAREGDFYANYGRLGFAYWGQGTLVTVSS VL: DIQMTQSPSSLSASVGDRVTITCRASQDITNYLNWYQQKPGKAPKLLIYYTSRLQSGVPSRFSGSGSGTDYTFTISSLQPEDIATYFCQQGDTKPYTFGGGTKVEIK is ____.
## Result 954
